Values from patent US6107459A

Assay: Scintigraphic imaging and biodistribution of Tc-99m labeled peptides in E. coli-infected rabbits
Assay type: in vivo, New Zealand white rabbits
Details: rabbit, in vivo, iv; Tc-99m labeled peptide i.v. (≤150 μg, 2-10 mCi), 24 h after i.m. E. coli inoculation; tissue taken after final imaging; percent injected dose per gram tissue; read-out: Infected Muscle (% ID/g)
Description: After 24 h, the animals were sedated by i.m. injection of ketamine and xylazine, and then injected i.v. with Tc-99m labeled peptide (≤150 μg, 2-10 mCi). The animals were positioned supine in the field of view of a gamma camera (LEAP collimator/photopeaked for Tc-99m) and imaged over the first hour post-injection, and then at approximately 1 h intervals over the next three hours post injection. Animals were allowed to recover between image acquisitions and re-anesthetized as needed. […]
Where a SMILES comes first, the peptide text is derived from it. The star is where a group is joined. X1 = CC(C)(S)CNCCN(CCCCC(=O)*)CC(C)(C)S
Quantity: tissue uptake (%ID/g)

>  <Molecule>
CC[C@H](C)[C@H](NC(=O)[C@H](CCCCN)NC(=O)[C@H](CCCCN)NC(=O)[C@H](Cc1ccc(O)cc1)NC(=O)[C@H](CC(C)C)NC(=O)[C@@H]1CCCN1C(=O)CNC(=O)CNC(=O)CCCCN(CCNCC(C)(C)S)CC(C)(C)S)C(=O)N[C@H](C(=O)N[C@@H](CCCCN)C(=O)N[C@@H](CCCCN)C(=O)N[C@@H](CC(C)C)C(=O)N[C@@H](CC(C)C)C(=O)N[C@@H](CCC(=O)O)C(=O)N[C@@H](CO)C(=O)O)[C@@H](C)CC [[BAT].GGPLYKKIIKKLLES] (X1-GGPLYKKIIKKLLES-OH; N-terminus and C-terminus assumed)

>  <Quantity>
tissue uptake

>  <Obs value>
0.0021

$$$$
